test: Solubility (buffer pH 7.4); type: physicochemical; details: read-out: S
Listing of entries alongside the reported solubility.
The answer is to be given in µg/mL; state only the numeric part.

C[C@H]1[C@H](N)CN1c1c(F)c(N)c2c(=O)c(C(=O)O)cn(C3CC3)c2c1F :: 37.7
C[C@@H]1[C@@H](N(C)C)CN1c1c(F)cc2c(=O)c(C(=O)O)cn(C3CC3)c2c1F :: 97.1
C[C@H]1[C@H](N)CN1c1c(F)cc2c(=O)c(C(=O)O)cn(-c3ccc(F)cc3F)c2c1Cl :: 16.5
C[C@H]1[C@@H](N)CN1c1cc2c(cc1F)c(=O)c(C(=O)O)cn2C1CC1 :: 6.1
CC[C@H]1[C@@H](N)CN1c1c(F)cc2c(=O)c(C(=O)O)cn(C3CC3)c2c1F :: 55.9

Prompt: I am curious: what solubility value has been reported for `CNC1CN(c2c(F)cc3c(=O)c(C(=O)O)cn(C4CC4)c3c2F)C1` ?
Response: 1.7

---

Some compounds, each annotated with its measured MIC.
test system: Klebsiella pneumoniae; experiment: In vitro minimum inhibitory concentration to inhibit Klebsiella pneumoniae ATCC 10031; assay type: functional
Dear colleague, please return just the value in µg/mL, with no unit written.

Field: example entries. Status: answers known.
C[C@H]1[C@H](N)CN1c1c(F)cc2c(=O)c(C(=O)O)cn(C3CC3)c2c1Cl :: 0.007
C[C@@H]1[C@@H](N(C)C)CN1c1cc2c(cc1F)c(=O)c(C(=O)O)cn2C1CC1 :: 0.06
C[C@H]1[C@H](N)CN1c1c(F)cc2c(=O)c(C(=O)O)cn(-c3ccc(F)cc3F)c2c1Cl :: 0.12
C[C@H]1[C@H](N)CN1c1c(F)c(N)c2c(=O)c(C(=O)O)cn(C3CC3)c2c1F :: 0.015

Prompt: Which MIC value belongs to `CC1(C)[C@@H](N)CN1c1c(F)cc2c(=O)c(C(=O)O)cn(C3CC3)c2c1F` ?
Response: 0.03

Prompt: Consider the compound shown here: `C[C@H]1[C@H](N)CN1c1cc2c(cc1F)c(=O)c1c(=O)[nH]sc1n2C1CC1` What is its recorded MIC?
Response: 0.015

Prompt: Need MIC, item `C[C@H]1[C@H](N)CN1c1cc2c(cc1F)c(=O)c(C(=O)O)cn2C1CC1`
Response: 0.03

Prompt: Can you share its MIC? I mean this compound: `C[C@@H]1[C@@H](O)CN1c1c(F)cc2c(=O)c(C(=O)O)cn(C3CC3)c2c1F`
Response: 0.015

---

assay: HPLC capacity factor (k'); format: ADME
READOUT_TYPE: Log k'
Number only, no unit.

CNC1(C)CN(c2c(F)cc3c(=O)c(C(=O)O)cn(C4CC4)c3c2F)C1 :: 0.1055
CCn1cc(C(=O)O)c(=O)c2cc(F)c(N3CC(C)(N)C3)c(F)c21 :: -0.0757
C[C@H]1[C@H](N)CN1c1c(F)cc2c(=O)c(C(=O)O)cn(-c3ccc(F)cc3F)c2c1F :: 0.2644
CC[C@H]1[C@@H](O)CN1c1cc2c(cc1F)c(=O)c(C(=O)O)cn2C1CC1 :: 0.529
CCNC[C@H]1CN(c2cc3c(cc2F)c(=O)c(C(=O)O)cn3C2CC2)[C@@H]1C :: -0.0042

Attention now shifts to the item below.
Prompt: I'd like to know its Log k'. The molecule in question is `C[C@@H]1[C@@H](N(C)C)CN1c1c(F)cc2c(=O)c(C(=O)O)cn(C3CC3)c2c1F`
Response: 0.769

---

Catalogue of MIC readings, one per entry.
system: Morganella morganii; experiment: In vitro minimum inhibitory concentration for Morganella morganii ATCC 8019; assay type: functional
Express your answer in µg/mL, writing the number without its unit.

Worked cases, answers included:
C[C@H]1[C@H](N)CN1c1c(F)cc2c(=O)c3c(=O)[nH]sc3n(C3CC3)c2c1F :: 0.06
CCn1cc(C(=O)O)c(=O)c2cc(F)c(N3C[C@@H](N)[C@@H]3C)c(F)c21 :: 0.06
C[C@H]1[C@H](N)CN1c1c(F)cc2c(=O)c(C(=O)O)cn(C(C)(C)C)c2c1F :: 0.25

Prompt: Which MIC value belongs to `CCn1cc(C(=O)O)c(=O)c2cc(F)c(N3C[C@@H](N)[C@@H]3C)c(Cl)c21` ?
Response: 0.03

Prompt: If you can, please state the reported MIC value of `CC[C@H]1[C@@H](N)CN1c1c(F)cc2c(=O)c(C(=O)O)cn(C3CC3)c2c1F` .
Response: 0.12

Prompt: For `C[C@H]1[C@H](N)CN1c1nc2c(cc1F)c(=O)c(C(=O)O)cn2-c1ccc(F)cc1F` , what is its reported MIC?
Response: 0.25

Prompt: Looking for the measured MIC of `C[C@H]1[C@@H](O)CN1c1c(F)cc2c(=O)c(C(=O)O)cn(C3CC3)c2c1F` , can you help?
Response: 0.5

Prompt: What does the data say about its MIC? Entry: `C[C@H]1[C@H](N)CN1c1cc2c(cc1F)c(=O)c(C(=O)O)cn2-c1ccc(F)cc1`
Response: 0.06

Prompt: For `C[C@H]1N(c2cc3c(cc2F)c(=O)c(C(=O)O)cn3C2CC2)C[C@]1(C)N` , what is its reported MIC?
Response: 0.06

---

experiment: HPLC capacity factor (k'); format: ADME
Short version: Log k' at least 0.1 is 1, less is 0.

CC[C@H]1[C@@H](N)CN1c1c(F)cc2c(=O)c(C(=O)O)cn(C3CC3)c2c1F :: 1
CCn1cc(C(=O)O)c(=O)c2cc(F)c(N3CC(C)(N)C3)cc21 :: 0
CC1(N)CN(c2c(F)cc3c(=O)c(C(=O)O)cn(-c4ccc(F)cc4)c3c2F)C1 :: 1
CN(C)C1CN(c2cc3c(cc2F)c(=O)c(C(=O)O)cn3C2CC2)C1 :: 1
NC1CN(c2c(F)cc3c(=O)c(C(=O)O)cn(-c4ccc(F)cc4F)c3c2Cl)C1 :: 1
CN(C)C1CN(c2c(F)cc3c(=O)c(C(=O)O)cn(C4CC4)c3c2F)C1 :: 1
CCNCC1CN(c2c(F)cc3c(=O)c(C(=O)O)cn(C4CC4)c3c2F)C1 :: 1
CC1(N)CN(c2c(F)c(N)c3c(=O)c(C(=O)O)cn(-c4ccc(F)cc4F)c3c2F)C1 :: 1
C[C@H]1[C@H](N)CN1c1c(F)cc2c(=O)c3c(=O)[nH]sc3n(C3CC3)c2c1F :: 1
CCNCC1CN(c2cc3c(cc2F)c(=O)c(C(=O)O)cn3C2CC2)C1 :: 0

Okay, next one:
Prompt: Is reported Log k' greater than or equal to 0.1 here: `CN(C)C1(C)CN(c2cc3c(cc2F)c(=O)c(C(=O)O)cn3C2CC2)C1`
Response: 1

---

test system: Morganella morganii; experiment: In vitro minimum inhibitory concentration for Morganella morganii ATCC 8019; assay type: functional
READOUT_TYPE: MIC (µg/mL)
The figure you give is taken to be in µg/mL; do not add the unit.

Worked examples, 8 compounds total:
C[C@H]1[C@H](N)CN1c1cc2c(cc1F)c(=O)c(C(=O)O)cn2C1CC1 :: 0.03
C[C@H]1[C@H](N)CN1c1c(F)cc2c(=O)c(C(=O)O)cn(-c3ccc(F)cc3)c2c1Cl :: 0.06
CCn1cc(C(=O)O)c(=O)c2cc(F)c(N3C[C@@H](N)[C@@H]3C)nc21 :: 0.25
C[C@H]1[C@H](N)CN1c1c(F)cc2c(=O)c(C(=O)O)cn(CCF)c2c1Cl :: 0.03
CCn1cc(C(=O)O)c(=O)c2cc(F)c(N3C[C@@H](N)[C@@H]3C)cc21 :: 0.25
C[C@H]1[C@H](N)CN1c1nc2c(cc1F)c(=O)c(C(=O)O)cn2-c1ccc(F)cc1 :: 0.25
C[C@H]1[C@H](N)CN1c1c(F)cc2c(=O)c(C(=O)O)cn3c2c1SCC3 :: 0.25
CCNC[C@H]1CN(c2cc3c(cc2F)c(=O)c(C(=O)O)cn3C2CC2)[C@@H]1C :: 0.5

Prompt: Could you share which MIC value was measured for `C[C@@H]1[C@@H](CN)CN1c1c(F)cc2c(=O)c(C(=O)O)cn(C3CC3)c2c1F` ?
Response: 0.25

Prompt: What does the record list as MIC for `C[C@H]1[C@H](N)CN1c1cc2c(cc1F)c(=O)c1c(=O)[nH]sc1n2C1CC1` ?
Response: 0.03

---

test: HPLC capacity factor (k'); format: ADME
Think of 0.1 as a floor: if Log k' stands on it or above, it is Criterion met; beneath it, Criterion not met.

These solved cases illustrate the format of a correct answer.
CC1(N)CN(c2cc3c(cc2F)c(=O)c(C(=O)O)cn3-c2ccc(F)cc2F)C1 :: Criterion not met
CC1(N)CN(c2c(F)cc3c(=O)c(C(=O)O)cn(-c4ccc(F)cc4)c3c2Cl)C1 :: Criterion met
NCC1CN(c2cc3c(cc2F)c(=O)c(C(=O)O)cn3C2CC2)C1 :: Criterion not met

Prompt: Exam item: decide whether the reported Log k' for `CC1(N)CN(c2cc3c(cc2F)c(=O)c(C(=O)O)cn3C(C)(C)C)C1` is at least 0.1.
Response: Criterion not met

Prompt: Does `CNC1CN(c2c(F)cc3c(=O)c(C(=O)O)cn(C4CC4)c3c2Cl)C1` have a reported Log k' of at least 0.1?
Response: Criterion met

Prompt: Identify whether the reported Log k' of the following molecule is 0.1 or greater: `O=C(O)c1cn(C2CC2)c2cc(N3CC(O)C3)c(F)cc2c1=O`
Response: Criterion met

Prompt: Check this molecule for Log k' at or above 0.1: `C[C@H]1N(c2cc3c(cc2F)c(=O)c(C(=O)O)cn3C2CC2)C[C@]1(C)N`
Response: Criterion met

Prompt: Does `C[C@H]1[C@H](N)CN1c1c(F)cc2c(=O)c(C(=O)O)cn(C3CC3)c2c1Cl` have a reported Log k' of at least 0.1?
Response: Criterion met

This collection of values is drawn from ChEMBL document CHEMBL1127424.
